Values from patent US20250320228A1

Target: UniProt:Q92918
Sequence (Q92918 whole entry): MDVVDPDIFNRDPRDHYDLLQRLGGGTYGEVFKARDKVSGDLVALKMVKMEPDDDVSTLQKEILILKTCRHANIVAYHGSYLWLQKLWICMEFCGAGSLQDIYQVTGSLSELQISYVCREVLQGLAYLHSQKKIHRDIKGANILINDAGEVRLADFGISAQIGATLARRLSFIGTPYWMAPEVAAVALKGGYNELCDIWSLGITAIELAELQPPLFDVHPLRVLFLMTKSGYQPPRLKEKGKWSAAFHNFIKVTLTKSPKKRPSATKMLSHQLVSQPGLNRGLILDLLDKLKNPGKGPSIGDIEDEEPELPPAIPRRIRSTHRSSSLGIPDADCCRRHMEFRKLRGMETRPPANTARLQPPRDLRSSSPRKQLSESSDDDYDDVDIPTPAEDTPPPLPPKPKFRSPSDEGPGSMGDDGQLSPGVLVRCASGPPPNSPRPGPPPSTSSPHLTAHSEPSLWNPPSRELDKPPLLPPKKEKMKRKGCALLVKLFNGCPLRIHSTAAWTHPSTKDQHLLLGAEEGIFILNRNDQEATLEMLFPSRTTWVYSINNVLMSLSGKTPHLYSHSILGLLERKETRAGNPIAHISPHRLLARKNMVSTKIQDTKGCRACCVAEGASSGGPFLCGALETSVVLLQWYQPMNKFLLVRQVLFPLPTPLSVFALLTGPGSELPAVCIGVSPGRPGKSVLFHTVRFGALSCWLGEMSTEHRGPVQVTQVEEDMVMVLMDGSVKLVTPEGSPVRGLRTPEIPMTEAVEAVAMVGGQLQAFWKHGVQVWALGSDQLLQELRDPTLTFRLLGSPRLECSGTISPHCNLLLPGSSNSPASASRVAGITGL
Assay: HPK1 kinase assay (biochemical, ADP-Glo)
Details: GST-HPK1 3.2 nM, 10 μM ATP, MBP substrate, ADP-Glo; read-out: HPK1 enzymatic IC50
parameterMeasured: IC50

NC(=O)c1cc(C=C2CCOCC2)nc2c(N[C@H]3CCCNC3)ncnc12    > 1 µM
CS(=O)(=O)Cc1ccc(-c2cc(C(N)=O)c3ncnc(N[C@H]4CCCNC4)c3n2)cc1    < 0.1 µM

Reported IC50 of N#Cc1cc(C(F)F)ccc1-c1cc(C(N)=O)c2ncnc(N[C@@H]3CNCC(F)(F)C3)c2n1 : 0.1 to 1 µM

Reported IC50 of NC(=O)c1cc(-c2ccc(CN3C4COCC3C4)cc2)nc2c(N[C@H]3CCCNC3)ncnc12 : < 0.1 µM
